system: Ishikawa cells; experiment: MTT cell viability assay; assay type: cell-based, human; conditions: Homo sapiens, Ishikawa, read-out: IC50 (μM) ISHIKAWA, 72 h, 10%FBS growth media
In this section we review reported IC50 values for a set of molecules.
Metric Name: IC50 (µM)

INSERT INTO results (molecule, limit_sign, recorded_number) VALUES
  ('O=C1C(c2ccc([N+](=O)[O-])cc2)=CC(O)(c2ccccc2)N1Cc1ccccc1 (centres unmarked)', '=', 1.29),
  ('O=C1C(c2ccccc2)=CC(O)(c2ccccc2)N1C1CCCCC1 (centres unmarked)', '>', 10),
  ('Cc1ccc(C2=CC(O)(c3ccccc3)N(Cc3ccccc3)C2=O)cc1C (centres unmarked)', '=', 0.27),
  ('COc1ccc(N2C(=O)C(c3cccc([N+](=O)[O-])c3)=CC2(O)c2cccc(OC)c2)cc1 (centres unmarked)', '>', 10),
  ('O=C1C(c2ccc3c(c2)OCO3)=CC(O)(c2ccccc2)N1Cc1ccccc1 (centres unmarked)', '=', 10.1);
